TEST: Toxicity liver stage against HepG2, at 10uM
Assay type: cell-based
Design: test concentration 10 uM, cell line HepG2-A16-CD81EGFP
CONDITIONS: human, HepG2-A16-CD81EGFP cells; read-out: INHIBITION
What cytotoxicity at 10 µM was measured for each of the following?

// worked examples, cytotoxicity at 10 µM included
*Q* What measured cytotoxicity at 10 µM goes with Cc1noc(Cl)c1CCC(=O)N1CCN(c2ccccc2)CC1 ?
*A* -1.37%

*Q* # repeat for Cc1occc1C(=O)N1CCn2cnc(COCC3CC3)c2C1
*A* -6.4%

*Q* # repeat for CCCC(=O)N1CCC(Nc2ncc(Br)cn2)CC1
*A* -8.69%

*Q* # repeat for Fc1cccc(CN2C[C@@H]3CN(c4ncccn4)C[C@@H]3C2)c1
*A* 6.81%

*Q* # repeat for Cc1ccc(-c2ncc(C(=O)N3CCC[C@H](N)C3)c(O)n2)cc1
*A* -7.14%

*Q* # repeat for CCn1c(CNC(=O)c2ccc(N(C)C)nc2)nc2ccccc21
*A* 4.5%

*Q* # repeat for CC(C)c1cc(NC(=O)CN2CCc3ccccc3C2)on1
*A* -4.89%

*Q* # repeat for C[C@@H]1CN(CC(C)(C)N2CCOCC2)C[C@@]1(O)C1CC1
*A* 2.93%

# per-item lookup of cytotoxicity at 10 µM; items listed below
1. C[S+]([O-])c1nncn1CC(=O)c1ccc2c(c1)CCC2 (stereo not drawn)
2. CC(C)(C)c1nc(CNC2CCN(S(C)(=O)=O)CC2)cs1
3. CC(=O)N1CCCN(C(C(=O)O)c2ccc(C)cc2C)CC1 (stereo not drawn)
4. CCN1C(=O)CC(c2cnn(C)c2)C12CCN(C(=O)c1ccoc1)CC2 (stereo not drawn)

*A*
1. -1.88%
2. -2.34%
3. -3.98%
4. 9.61%
